Tested on: Fas
Assay: Fas expression at the cell surface by flow cytometry, UMUC-3 cells
Assay type: cell-based, human
Settings: UMUC-3 bladder cancer cells, 100 μg/ml sequence, 48 h, treated vs control cells

>  <residues>
TGGTTG [SEQ ID NO:9]

>  <experimentalTarget>
Fas

>  <% INCREASE Fas [%]>
143

$$$$
>  <residues>
GGGGGG [SEQ ID NO:16]

>  <experimentalTarget>
Fas

>  <% INCREASE Fas [%]>
−5

$$$$
>  <residues>
GGGTGG [SEQ ID NO:5]

>  <experimentalTarget>
Fas

>  <% INCREASE Fas [%]>
67

$$$$
>  <residues>
TCGTTC [SEQ ID NO:12]

>  <experimentalTarget>
Fas

>  <% INCREASE Fas [%]>
47

$$$$
>  <residues>
GGAAGG [SEQ ID NO:14]

>  <experimentalTarget>
Fas

>  <% INCREASE Fas [%]>
1

$$$$
>  <residues>
CCGTCC [SEQ ID NO:8]

>  <experimentalTarget>
Fas

>  <% INCREASE Fas [%]>
55

$$$$
>  <residues>
GGCCGG [SEQ ID NO:15]

>  <experimentalTarget>
Fas

>  <% INCREASE Fas [%]>
23

$$$$
>  <residues>
GGTGGG [SEQ ID NO:4]

>  <experimentalTarget>
Fas

>  <% INCREASE Fas [%]>
62

$$$$
>  <residues>
TTTGTT [SEQ ID NO:3]

>  <experimentalTarget>
Fas

>  <% INCREASE Fas [%]>
108

$$$$
>  <residues>
GGGAGG [SEQ ID NO:17]

>  <experimentalTarget>
Fas

>  <% INCREASE Fas [%]>
39

$$$$
>  <residues>
TGTGTG [SEQ ID NO:1]

>  <experimentalTarget>
Fas

>  <% INCREASE Fas [%]>
72

$$$$
>  <residues>
AAGTAA [SEQ ID NO:7]

>  <experimentalTarget>
Fas

>  <% INCREASE Fas [%]>
6

$$$$
>  <residues>
GGGCGG [SEQ ID NO:18]

>  <experimentalTarget>
Fas

>  <% INCREASE Fas [%]>
72

$$$$
>  <residues>
GGTTGG [SEQ ID NO:13]

>  <experimentalTarget>
Fas

>  <% INCREASE Fas [%]>
47

$$$$
>  <residues>
ATGTAT [SEQ ID NO:10]

>  <experimentalTarget>
Fas

>  <% INCREASE Fas [%]>
42

$$$$
>  <residues>
CTGTCT [SEQ ID NO:11]

>  <experimentalTarget>
Fas

>  <% INCREASE Fas [%]>
45

$$$$
>  <residues>
GTGTGT [SEQ ID NO:2]

>  <experimentalTarget>
Fas

>  <% INCREASE Fas [%]>
72

$$$$
>  <residues>
TTGTTT [SEQ ID NO:6]

>  <experimentalTarget>
Fas

>  <% INCREASE Fas [%]>
57

$$$$
